In this section, each of the molecules is paired with its reported AC50.
# experimentalSystem: UniProtKB O75030
# Sequence (O75030 whole entry): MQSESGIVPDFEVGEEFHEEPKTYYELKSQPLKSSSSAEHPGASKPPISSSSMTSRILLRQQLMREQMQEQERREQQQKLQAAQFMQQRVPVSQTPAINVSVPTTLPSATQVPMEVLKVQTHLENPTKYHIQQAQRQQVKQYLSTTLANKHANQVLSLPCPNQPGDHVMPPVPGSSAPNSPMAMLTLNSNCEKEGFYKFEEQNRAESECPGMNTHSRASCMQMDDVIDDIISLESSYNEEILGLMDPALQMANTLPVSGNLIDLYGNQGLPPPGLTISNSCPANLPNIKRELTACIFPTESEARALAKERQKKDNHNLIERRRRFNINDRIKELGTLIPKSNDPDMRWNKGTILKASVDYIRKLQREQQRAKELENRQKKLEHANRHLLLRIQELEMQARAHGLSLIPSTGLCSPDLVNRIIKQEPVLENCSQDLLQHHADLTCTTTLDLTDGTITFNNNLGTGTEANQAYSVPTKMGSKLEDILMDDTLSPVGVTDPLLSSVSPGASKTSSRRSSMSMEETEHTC
# method: reducers of TRPM1 reporter luminescence, concentration series – cell-based, SK-MEL-5, cherry-picked, set 3, MITF inhibitor project, dose response (AID 493073);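 note: SK-MEL-5 melanoma cells with luciferase driven by the MITF target TRPM1 promoter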
# Assay type: functional
The source made the active and inactive calls. The rule behind the calls is not given here.

These solved cases illustrate the format of a correct answer.
INSERT INTO measurements (molecule, measuredproperty, result) VALUES
  ('Clc1ccc(-c2c[n+](Cc3cccc(Cl)c3)c3n2CCC3)cc1', 'AC50', '8.77 µM (active)'),
  ('COc1ccc(C(NC(C)=O)c2ccc3cccnc3c2O)c(OC)c1 (configuration not stated)', 'AC50', '5.15 µM (active)'),
  ('COC(=O)C1=C(C)N(Cc2ccccc2)C(NCCc2cccnc2)=N[C@H]1c1ccc(Br)cc1', 'AC50', '17.8 µM (active)'),
  ('CC(C)N1C/C(=C/c2cccnc2)C(=O)/C(=C/c2cccnc2)C1', 'AC50', '14.2 µM (active)'),
  ('CC(C)Oc1ccc(C(CCN)C2CCCCC2)cc1 (configuration not stated)', 'AC50', '9.99 µM (active)'),
  ('O=C1NC(=S)NC(=O)C1=Cc1cccc2cc3ccccc3cc12', 'AC50', '4.81 µM (active)');

Query for UniProtKB O75030: what AC50 does the record show for `O=C1NC(=O)N(Cc2ccccc2)C(=O)/C1=C\C=C\c1ccco1` ? 6.29 µM (active)

---

# experimentalSystem: UniProtKB Q06710
# method: PAX8 transcriptional activity inhibition in RMG-I – RMG-I cells, luciferase, cherry-pick, dose response (AID 687027);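 note: luciferase reporter driven by Pax8 target thyroperoxidase promoter measured by SteadyGlo luminescence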
# Assay type: functional, cell-based
Activity calls are given as the source filed them. How the calls were made is not given here.
measuredProperty: AC50

Query for UniProtKB Q06710: what AC50 does the record show for `COc1cccc(C#Cc2ccc([C@@H]3[C@H](C#N)N(C(=O)c4ccccn4)[C@H]3CO)cc2)c1` ? 11.9 µM (active)

Query for UniProtKB Q06710: what AC50 does the record show for `C[C@@H]1CN([C@@H](C)CO)C(=O)Cc2cc(N(C)C)ccc2O[C@H]1CN(C)Cc1ccc(Oc2ccccc2)cc1` ? 11 µM (active)

Query for UniProtKB Q06710: what AC50 does the record show for `C[C@H]1CN([C@@H](C)CO)C(=O)Cc2cc(NC(=O)Nc3ccc(C(F)(F)F)cc3)ccc2O[C@H]1CN(C)C(=O)Nc1ccc(C(F)(F)F)cc1` ? 13 µM (active)

Query for UniProtKB Q06710: what AC50 does the record show for `C[C@@H]1CN([C@@H](C)CO)C(=O)c2cc(NC(=O)c3ccccc3)ccc2O[C@@H](C)CCCCO[C@H]1CN(C)Cc1ccc(C(F)(F)F)cc1` ? 10.1 µM (active)

---

# experimentalSystem: Cytochrome P450 2C9 (Homo sapiens, UniProt P11712)
# Sequence (P11712 whole entry): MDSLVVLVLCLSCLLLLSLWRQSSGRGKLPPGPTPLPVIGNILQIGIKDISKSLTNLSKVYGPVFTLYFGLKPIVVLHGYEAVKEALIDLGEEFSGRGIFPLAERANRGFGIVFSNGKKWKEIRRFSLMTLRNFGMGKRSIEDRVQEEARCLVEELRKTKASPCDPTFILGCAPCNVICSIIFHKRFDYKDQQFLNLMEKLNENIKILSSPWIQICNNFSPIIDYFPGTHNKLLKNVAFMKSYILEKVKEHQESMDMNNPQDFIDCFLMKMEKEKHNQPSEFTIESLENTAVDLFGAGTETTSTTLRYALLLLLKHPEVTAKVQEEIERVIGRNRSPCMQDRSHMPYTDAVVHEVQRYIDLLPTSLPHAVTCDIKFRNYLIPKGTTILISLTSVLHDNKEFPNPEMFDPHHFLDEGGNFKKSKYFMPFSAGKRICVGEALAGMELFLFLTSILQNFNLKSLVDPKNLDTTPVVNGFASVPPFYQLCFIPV
measuredProperty: AC50

These solved cases illustrate the format of a correct answer.
INSERT INTO results (compound, experimentalsystem, result) VALUES
  ('CCc1ccccc1NC(=O)c1nnn(CC(=O)Nc2cccc(C)c2C)c1N', 'Cytochrome P450 2C9 (Homo sapiens, UniProt P11712)', 'inconclusive'),
  ('CCN(CC)CCOC(=O)c1cc(Cl)c(N)cc1OC', 'Cytochrome P450 2C9 (Homo sapiens, UniProt P11712)', 'inconclusive'),
  ('Cn1c(SCC(=O)N2CCN(S(=O)(=O)c3ccccc3)CC2)nc2ccccc21', 'Cytochrome P450 2C9 (Homo sapiens, UniProt P11712)', 'inconclusive'),
  ('CC(C(=O)NCc1ccc2c(c1)OCO2)N1c2cccc3cccc(c23)S1(=O)=O (stereo unspecified)', 'Cytochrome P450 2C9 (Homo sapiens, UniProt P11712)', 'inconclusive');

Query for Cytochrome P450 2C9 (Homo sapiens, UniProt P11712): what AC50 does the record show for `O=C(Nc1ncc(Cc2cccc(Cl)c2)s1)C1=NCCN1` ? inconclusive

Query for Cytochrome P450 2C9 (Homo sapiens, UniProt P11712): what AC50 does the record show for `C/C(CC(=O)NCc1ccco1)=N\NC(=O)Cc1cccc2ccccc12` ? inconclusive
